Can you tell me Plant response rating, Morningglory for the items I'm about to list?
Test system: morningglory
procedure.summary: Test A pre-/postemergence herbicide test
Type: in vivo, Ipomoea spp.
assay.context: Postemergence, 500 g ai/ha; 0 to 100 scale (0 no effect, 100 complete control)
Answer as a number with no unit attached.

query: Could you please provide reported Plant response rating, Morningglory for O=C1NCC(c2cccc(C(F)(F)F)c2)C1C(=O)Nc1cccc(F)c1F (stereo not shown) ? Thanks!
result: 30

query: Please list Plant response rating, Morningglory recorded for the molecule O=C1NCC(c2ccc(C(F)(F)F)c(F)c2)C1C(=O)Nc1cccc(F)c1F (racemic)
result: 0

query: Tell me its Plant response rating, Morningglory given O=C1NCC(c2ccc(F)c(C(F)(F)F)c2)C1C(=O)Nc1ccccc1F (racemic) as the entry.
result: 40

query: Hello, please tell me recorded Plant response rating, Morningglory for this one: O=C1NCC(c2ccc(Cl)cc2)C1C(=O)Nc1ccccc1F (racemic)
result: 10

query: Please list Plant response rating, Morningglory recorded for the molecule O=C1NCC(c2ccc(F)c(C(F)(F)F)c2)C1C(=O)Nc1ccccc1C(F)(F)F (racemic)
result: 0

query: Fill in reported Plant response rating, Morningglory for this entry: O=C1NCC(c2ccc(F)c(F)c2)C1C(=O)Nc1cccc(F)c1F (racemic)
result: 40

query: Provide Plant response rating, Morningglory value for the following molecule: O=C1NCC(c2ccc(C(F)(F)F)c(Cl)c2)C1C(=O)Nc1ccccc1C(F)(F)F (racemic)
result: 0

query: For the molecule O=C1NCC(c2ccc(C(F)(F)F)c(F)c2)C1C(=O)Nc1ccccc1F (racemic) , give its reported Plant response rating, Morningglory.
result: 0

query: Find the measured Plant response rating, Morningglory of O=C1NCC(c2cccc(Br)c2)C1C(=O)Nc1cccc(F)c1F (stereo not shown) and report it.
result: 0

query: Supply measured Plant response rating, Morningglory of CC1NC(=O)C(C(=O)Nc2ccccc2F)C1c1ccc(F)c(F)c1 (mixture of isomers) in your reply.
result: 0

====

Tested on: ragweed
procedure.summary: Test A pre-/postemergence herbicide test
Assay type: in vivo, Ambrosia elatior
assay.context: Postemergence, 125 g ai/ha; visual rating on 0 to 100 scale (0 no effect, 100 complete control), approx. 10 days
property: Plant response rating, Ragweed
# answer = number (no unit)

query: Give the reported Plant response rating, Ragweed for this molecule. O=C1NCC(c2cnn(CC(F)(F)F)c2)C1C(=O)Nc1cccc(F)c1F (stereo not shown)
result: 0

query: Fill in Plant response rating, Ragweed for record O=C1NCC(c2cccc(Oc3ccccc3)c2)C1C(=O)Nc1cccc(F)c1F (stereo not shown)
result: 0

query: Give the reported Plant response rating, Ragweed for this molecule. O=C1NCC(c2cc3ccccc3s2)C1C(=O)Nc1ccccc1F (stereo not shown)
result: 0

query: Please give measured Plant response rating, Ragweed of the following entry: O=C1NCC(c2cccc(Br)c2)C1C(=O)Nc1ccccc1F (stereo not shown)
result: 0

query: Query Plant response rating, Ragweed for O=C1NCC(c2cccc(Br)c2)C1C(=O)Nc1ccc(F)cc1F (stereo not shown)
result: 0

query: Hello, please tell me recorded Plant response rating, Ragweed for this one: CN1CC(c2ccc(C(F)(F)F)cc2)C(C(=O)Nc2ccccc2F)C1=O (stereo not shown)
result: 0

query: State its Plant response rating, Ragweed for this molecule: CN1CC(c2ccc(F)cc2)C(C(=O)Nc2cccc(F)c2F)C1=O (stereo not shown)
result: 0

query: Look up and report measured Plant response rating, Ragweed for this entry: O=C1NCC(c2cccc(OC(F)F)c2)C1C(=O)Nc1ccc(F)c(F)c1F (stereo not shown)
result: 20

query: Supply recorded Plant response rating, Ragweed for O=C1NCC(c2ccc(OC(F)F)cc2)C1C(=O)Nc1ccccc1C(F)(F)F (stereo not shown) here.
result: 0

query: Answer with the recorded Plant response rating, Ragweed for the molecule listed here: O=C1NCC(c2cccc(C(F)(F)F)c2)C1C(=O)Nc1ccccc1Cl (stereo not shown)
result: 20
